These data points were gathered from patent US20230241113A1.

# targetOrSystem: T1, HLA-A*02:01 (human)
# T1 construct: captured on streptavidin plates, detected with anti-β2m; also called peptide-receptive MHC molecules; MHC class I
# experimentDescription: UV-ligand exchange + anti-β2m ELISA; exchange yield grade: ≥10% +, ≥20% ++, ≥50 +++, ≥75% ++++
attributeMeasured: peptide exchange yield

* ALLPHAPEAV (also called ALLPHAPEAV) [altORF-009] | 50 to 75%
* LLLATLENL (also called LLLATLENL) [altORF-058] | ≥ 75%

For this binder ( GLIDDKGTIKL (also called GLIDDKGTIKL) [CDC2-006] ), measured peptide exchange yield is ≥ 75%

For this binder ( VVLPIVITL (also called VVLPIVITL) [altORF-029] ), measured peptide exchange yield is ≥ 75%

For this binder ( ALWEEVKATSL (also called ALWEEVKATSL) [altORF-005] ), measured peptide exchange yield is ≥ 75%

For this binder ( FLQEGDLISV (also called FLQEGDLISV) [altORF-007] ), measured peptide exchange yield is ≥ 75%

For this binder ( FLLVPSPIWQL (also called FLLVPSPIWQL) [altORF-001] ), measured peptide exchange yield is ≥ 75%

For this binder ( KMMTFFQGL (also called KMMTFFQGL) [altORF-016] ), measured peptide exchange yield is ≥ 75%

For this binder ( KLLDFSTRI (also called KLLDFSTRI) [NUDCD2-001] ), measured peptide exchange yield is ≥ 75%

For this binder ( KLLADAFKV (also called KLLADAFKV) [altORF-066] ), measured peptide exchange yield is ≥ 75%

For this binder ( LLRLTLLPL (also called LLRLTLLPL) [altORF-028] ), measured peptide exchange yield is 20 to 50%

For this binder ( GLLTQVHIL (also called GLLTQVHIL) [altORF-049] ), measured peptide exchange yield is ≥ 75%

For this binder ( VLSVSAVLGA (also called VLSVSAVLGA) [altORF-030] ), measured peptide exchange yield is 50 to 75%

For this binder ( GLSPDQVFL (also called GLSPDQVFL) [altORF-052] ), measured peptide exchange yield is ≥ 75%

For this binder ( KILDEFYNV (also called KILDEFYNV) [altORF-035] ), measured peptide exchange yield is ≥ 75%

For this binder ( LLLALRLSL (also called LLLALRLSL) [altORF-062] ), measured peptide exchange yield is 10 to 20%
